Where these numbers come from: patent US20240116985A1

Biological target: beta-catenin (Homo sapiens (Human)) (UniProt P35222)
Sequence (P35222 whole entry): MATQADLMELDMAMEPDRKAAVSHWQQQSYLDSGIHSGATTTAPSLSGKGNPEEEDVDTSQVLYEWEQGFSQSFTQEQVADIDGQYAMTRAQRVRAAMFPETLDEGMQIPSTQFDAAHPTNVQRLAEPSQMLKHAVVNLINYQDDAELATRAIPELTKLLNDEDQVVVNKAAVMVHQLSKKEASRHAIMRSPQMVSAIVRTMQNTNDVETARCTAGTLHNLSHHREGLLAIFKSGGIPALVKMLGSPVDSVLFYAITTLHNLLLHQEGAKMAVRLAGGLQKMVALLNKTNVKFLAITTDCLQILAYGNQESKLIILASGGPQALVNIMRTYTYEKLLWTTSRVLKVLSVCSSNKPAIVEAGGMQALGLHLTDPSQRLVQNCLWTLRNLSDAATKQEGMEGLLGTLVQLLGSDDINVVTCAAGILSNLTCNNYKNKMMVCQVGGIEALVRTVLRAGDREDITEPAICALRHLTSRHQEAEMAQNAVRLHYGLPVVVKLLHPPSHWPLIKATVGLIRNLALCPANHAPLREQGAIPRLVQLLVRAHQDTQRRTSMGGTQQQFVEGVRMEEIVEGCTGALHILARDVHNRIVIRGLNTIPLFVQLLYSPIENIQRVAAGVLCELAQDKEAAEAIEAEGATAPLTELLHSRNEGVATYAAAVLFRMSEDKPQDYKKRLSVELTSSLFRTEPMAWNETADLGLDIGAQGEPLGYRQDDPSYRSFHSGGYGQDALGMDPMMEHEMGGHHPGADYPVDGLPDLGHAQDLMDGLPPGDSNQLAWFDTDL
Assay: fluorescence polarization competition; full-length beta-catenin with 5FAM-TCF4(10-53) probe as competitor
Starred links: 1 amine or outer side, 2 acyl side, 3 side chain; linkers in the order of their positions; H or OH if unused. Positions of bridges follow the written chain, without caps; N, C: chain ends. Non-standard residues stand in square brackets, D forms with d. Primed or numbered codes have the meaning given here. PyrS2″ = (S)-3-amino-1-((pent-4-en-1-yloxy)carbonyl)pyrrolidine-3-carboxylic acid (stapling residue), C=CCCCOC(=O)N1CC[C@@](N[*:1])(C(=O)[*:2])C1; B5(4) = 2,2-bis(4-pentenyl)glycine = 2-amino-2-(pent-4-en-1-yl)hept-6-enoic acid (stitching residue), C=CCCCC(CCCC=C)(N[*:1])C(=O)[*:2]; B5(5) = 2,2-bis(4-pentenyl)glycine, 2-amino-2-(pent-4-en-1-yl)hept-6-enoic acid (stitching residue), C=CCCCC(CCCC=C)(N[*:1])C(=O)[*:2]; PyrS2 = (S)-3-amino-1-((pent-4-en-1-yloxy)carbonyl)pyrrolidine-3-carboxylic acid, C=CCCCOC(=O)N1CC[C@@](N[*:1])(C(=O)[*:2])C1; B5(22) = 2-amino-2-(pent-4-en-1-yl)hept-6-enoic acid (two alkene side chains), C=CCCCC(CCCC=C)(N[*:1])C(=O)[*:2]; Trp(1-Me) = Cn1cc(C[C@H](N)C(=O)O)c2ccccc21; Phe(2-Cl) = N[C@@H](Cc1ccccc1Cl)C(=O)O; Bta = N[C@@H](Cc1csc2ccccc12)C(=O)O; αAllylPro = C=CC[C@@]1(C(=O)O)CCCN1; tBuAla = CC(C)(C)C[C@H](N)C(=O)O; 3Thi = N[C@@H](Cc1ccsc1)C(=O)O
PROPERTY: EC50 (nM)

Here are 2 binders together with their reported answers.
# BINDER, UNIT, EC50
rows = [
    ("Ac-[αAllylPro]D[tBuAla][B5(4)]DFAAFL[PyrS2″][3Thi][Bta]Q-NH2 (staple 1-4, 4-11) [I-1441]", "nM", 327),
    ("Ac-[αAllylPro]D[tBuAla][B5(22)]DDAAFL[PyrS2][3Thi][Trp(1-Me)]Q-NH2 (staple 1-4, 4-11) [I-1433]", "nM", 71),
]

P: Ac-[αAllylPro]D[tBuAla][B5(4)]DLAAFL[PyrS2″][3Thi][Bta]Q-NH2 (staple 1-4, 4-11) [I-1444]
Q: Ac-[αAllylPro]D[tBuAla][B5(5)]DDAAFL[PyrS2″][Phe(2-Cl)][Bta]L-NH2 (staple 1-4, 4-11; also: staple isomer, earlier eluting HPLC peak) [I-1416]
Between these two entries, P and Q , state which has the higher EC50. In your reply, give the label of the chosen option. P
